test: Racecadotril and degradation products over time in Acetate and Citrate at pH 3.6, 4.0, 4.5 (untitled table); format: physicochemical; conditions: Acetate, pH 4.5, Initial
quantity: Benz Alcohol

Could you tell me which Benz Alcohol is on file for CC(=O)SCC(Cc1ccccc1)C(=O)NCC(=O)OCc1ccccc1 (racemic) [Racecadotril] ? 0.02%

---

assay: Racecadotril and degradation products over time in Acetate and Citrate at pH 3.6, 4.0, 4.5 (untitled table); format: physicochemical; settings: Acetate, pH 3.6, 4 week
quantity: Thiorphan (%)
Just the number please, in %, no unit attached.

Could you tell me which Thiorphan is on file for CC(=O)SCC(Cc1ccccc1)C(=O)NCC(=O)OCc1ccccc1 (racemic) ? 0.3

Data origin, for the record: patent US20140271831A1
